- Study System: T1, human MSLN-FL-his protein (human, UniProt Q13421 296-580)
- T1 construct: Made in HEK293E cells, purified on nickel column; it is put last here; also called human MSLN full-length protein; hMSLN-FL-his; not shown: His tag
- T1 sequence (Q13421 other isoform, or with tags, fused parts or gaps): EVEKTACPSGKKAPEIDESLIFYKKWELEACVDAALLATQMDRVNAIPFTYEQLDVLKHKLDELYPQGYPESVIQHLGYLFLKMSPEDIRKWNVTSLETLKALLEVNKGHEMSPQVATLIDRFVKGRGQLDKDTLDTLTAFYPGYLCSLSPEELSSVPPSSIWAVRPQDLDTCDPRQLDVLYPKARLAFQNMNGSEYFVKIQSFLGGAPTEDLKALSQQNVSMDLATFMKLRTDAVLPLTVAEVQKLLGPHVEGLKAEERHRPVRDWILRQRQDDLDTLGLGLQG
- Experiment: ELISA on coated antigen, antibody 100 nM
Value Type: OD450 (OD)
Numbers only; they are read as OD.

Reference set (4 entries):
Binder	Value Type	Unit Symbol	Number
S009-F8-19.21 (antibody, human IgG1, kappa, V domains shown, Human-murine chimeric antibody, human IgG1 heavy and kappa light constant regions) VH: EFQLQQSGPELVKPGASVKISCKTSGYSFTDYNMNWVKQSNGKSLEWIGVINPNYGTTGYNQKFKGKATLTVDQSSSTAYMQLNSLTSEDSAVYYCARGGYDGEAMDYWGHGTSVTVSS VL: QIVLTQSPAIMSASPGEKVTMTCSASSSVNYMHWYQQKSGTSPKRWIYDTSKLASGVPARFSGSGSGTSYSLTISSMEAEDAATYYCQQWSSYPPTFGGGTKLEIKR	OD450	OD	2.37
S009-F8-4.5 (antibody, human IgG1, kappa, V domains shown, Human-murine chimeric antibody, human IgG1 heavy and kappa light constant regions) VH: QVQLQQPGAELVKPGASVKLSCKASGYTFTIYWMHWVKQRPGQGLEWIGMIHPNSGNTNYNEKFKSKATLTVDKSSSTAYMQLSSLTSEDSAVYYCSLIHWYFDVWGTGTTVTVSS VL: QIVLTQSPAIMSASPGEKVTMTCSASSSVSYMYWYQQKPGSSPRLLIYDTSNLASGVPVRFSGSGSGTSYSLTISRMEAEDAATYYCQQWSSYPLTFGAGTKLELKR	OD450	OD	2.94
S009-F8-33.12 (antibody, human IgG1, kappa, V domains shown, Human-murine chimeric antibody, human IgG1 heavy and kappa light constant regions) VH: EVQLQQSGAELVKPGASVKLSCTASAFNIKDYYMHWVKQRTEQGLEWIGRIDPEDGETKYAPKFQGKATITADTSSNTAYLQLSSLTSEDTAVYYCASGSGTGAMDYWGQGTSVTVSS VL: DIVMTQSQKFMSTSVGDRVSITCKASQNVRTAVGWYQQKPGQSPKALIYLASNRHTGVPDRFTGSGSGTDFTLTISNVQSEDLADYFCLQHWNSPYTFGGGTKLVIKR	OD450	OD	2.95
S009-F8-8.22 (antibody, human IgG1, kappa, V domains shown, Human-murine chimeric antibody, human IgG1 heavy and kappa light constant regions) VH: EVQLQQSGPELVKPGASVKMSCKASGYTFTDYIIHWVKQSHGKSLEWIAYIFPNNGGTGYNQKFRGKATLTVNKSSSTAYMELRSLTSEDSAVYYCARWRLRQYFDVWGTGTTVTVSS VL: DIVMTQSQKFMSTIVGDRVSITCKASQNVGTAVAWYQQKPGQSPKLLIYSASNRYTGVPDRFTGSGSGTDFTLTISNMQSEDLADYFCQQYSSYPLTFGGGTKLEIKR	OD450	OD	3.15

Turning now to a further binder:
Query S009-F8-36.12 (antibody, human IgG1, kappa, V domains shown, Human-murine chimeric antibody, human IgG1 heavy and kappa light constant regions) VH: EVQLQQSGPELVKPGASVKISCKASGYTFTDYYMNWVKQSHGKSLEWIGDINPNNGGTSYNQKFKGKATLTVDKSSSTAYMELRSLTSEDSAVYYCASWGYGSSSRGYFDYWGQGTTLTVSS VL: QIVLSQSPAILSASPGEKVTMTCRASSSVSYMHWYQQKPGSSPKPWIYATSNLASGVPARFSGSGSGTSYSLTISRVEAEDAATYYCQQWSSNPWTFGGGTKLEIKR yields OD450 of 2.71
